Target: von Hippel-Lindau disease tumor suppressor/Serine/threonine-protein kinase TBK1 (Homo sapiens, UniProt Q9UHD2+P40337)
Sequence (Q9UHD2 whole entry): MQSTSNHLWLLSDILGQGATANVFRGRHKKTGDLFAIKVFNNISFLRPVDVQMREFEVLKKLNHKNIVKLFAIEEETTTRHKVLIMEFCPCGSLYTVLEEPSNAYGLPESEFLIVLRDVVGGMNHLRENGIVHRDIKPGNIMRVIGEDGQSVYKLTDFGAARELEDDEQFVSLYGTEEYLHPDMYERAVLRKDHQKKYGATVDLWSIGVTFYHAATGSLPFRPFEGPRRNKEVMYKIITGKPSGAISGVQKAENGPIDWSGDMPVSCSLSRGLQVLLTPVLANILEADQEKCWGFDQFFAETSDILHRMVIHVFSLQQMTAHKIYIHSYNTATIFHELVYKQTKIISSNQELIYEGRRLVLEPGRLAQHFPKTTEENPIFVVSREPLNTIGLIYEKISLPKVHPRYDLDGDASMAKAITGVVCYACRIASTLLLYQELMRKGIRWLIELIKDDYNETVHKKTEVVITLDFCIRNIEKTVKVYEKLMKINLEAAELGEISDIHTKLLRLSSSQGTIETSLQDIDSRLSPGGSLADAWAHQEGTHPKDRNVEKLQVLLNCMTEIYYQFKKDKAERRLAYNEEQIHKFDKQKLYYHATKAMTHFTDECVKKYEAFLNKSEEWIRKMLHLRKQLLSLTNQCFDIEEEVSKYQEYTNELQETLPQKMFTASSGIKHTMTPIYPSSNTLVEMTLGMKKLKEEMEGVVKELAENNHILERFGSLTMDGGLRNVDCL
Sequence (P40337 whole entry): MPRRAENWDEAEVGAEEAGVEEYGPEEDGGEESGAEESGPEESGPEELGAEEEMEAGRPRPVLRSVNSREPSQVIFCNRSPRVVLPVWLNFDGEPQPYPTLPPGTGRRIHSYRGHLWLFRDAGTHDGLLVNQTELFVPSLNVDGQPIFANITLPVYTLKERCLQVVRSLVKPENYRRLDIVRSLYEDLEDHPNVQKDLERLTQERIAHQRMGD
Test: Induction of VHL-mediated TBK1 degradation in human Panc02.13 cells after 16 hrs by Western blot method
Type: cell-based
parameter: DC50

As a guide, the following entries are already answered.
Give its DC50 value. Item: Cc1ncsc1-c1ccc(CNC(=O)[C@@H]2C[C@@H](O)CN2C(=O)[C@@H](NC(=O)COCCOCCOc2ccc(Nc3ncc(Br)c(NCCCN(C)C(=O)C4CCC4)n3)cc2)C(C)(C)C)cc1
> 1000 nM

Looking for the measured DC50 of Cc1ncsc1-c1ccc(CNC(=O)[C@@H]2C[C@@H](O)CN2C(=O)[C@@H](NC(=O)COCCCOCCCCOCCCOc2ccc(Nc3nccc(NCCCN(C)C(=O)C4CCC4)n3)cc2)C(C)(C)C)cc1 , can you help?
> 1000 nM

# ---- query compound ----
I would be grateful if you could share the reported DC50 for CC[C@H](NC(=O)COCCCOCCCCOCCCOc1ccc(Nc2ncc(Br)c(NCCCN(C)C(=O)C3CCC3)n2)cc1)C(=O)N1C[C@H](O)C[C@H]1C(=O)NCc1ccc(-c2scnc2C)cc1 .
864 nM

Entry source: ChEMBL document CHEMBL4219031
